# testedTarget: human TPH1 (Homo sapiens (Human), UniProt P17752)
# Sequence (P17752 whole entry): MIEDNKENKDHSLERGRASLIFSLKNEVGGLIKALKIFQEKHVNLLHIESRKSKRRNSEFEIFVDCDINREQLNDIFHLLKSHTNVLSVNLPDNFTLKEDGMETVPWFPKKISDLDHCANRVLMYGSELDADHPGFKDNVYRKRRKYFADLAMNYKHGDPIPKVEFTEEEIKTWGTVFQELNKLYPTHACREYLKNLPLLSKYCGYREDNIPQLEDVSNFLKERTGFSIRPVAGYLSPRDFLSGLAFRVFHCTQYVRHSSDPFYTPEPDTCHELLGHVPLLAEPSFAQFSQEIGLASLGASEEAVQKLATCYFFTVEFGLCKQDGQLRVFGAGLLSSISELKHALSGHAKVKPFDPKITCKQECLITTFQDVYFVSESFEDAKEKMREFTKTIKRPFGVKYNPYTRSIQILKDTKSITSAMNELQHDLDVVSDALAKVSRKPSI
# measurementProtocol: Biochemical in vitro assay using fluorescence readout (TPH1 inhibition)
# studyConditions: full length human TPH1, 40 μM L-tryptophan, 15° C., 60 minutes, fluorescence at 540 nm; mean if determined several times
Give pIC50 for every item shown.
Lab note — pIC50 values are minus log10 of concentrations in M.

Asked: Name the recorded pIC50 for Cc1nn2c3c(nc2s1)CCN(C(=O)COc1ccc(NS(C)(=O)=O)nc1Cl)C3c1cc(C(=O)N(C)C)cs1 (stereo not shown) .
Given back: 7.49

Asked: Data request, read-out pIC50, for Cc1nn2c3c(nc2s1)CCN(C(=O)COc1ccc(N2CCOCC2)nc1Cl)C3c1cc(C(=O)N(C)C)cs1 (stereo not shown)
Given back: 8.30

Asked: Give its pIC50 value. Item: Cc1nn2c3c(nc2s1)CCN(C(=O)COc1ccc(N2CCOCC2)nc1Cl)C3c1nc(N)sc1F (stereo not shown)
Given back: 8.22

Asked: Entry Cc1nn2c3c(nc2s1)CCN(C(=O)COc1ccc(NS(C)(=O)=O)nc1Cl)C3c1ccc(OCCO)cc1F (stereo not shown) : reported pIC50 = ?
Given back: 7.80

====

# testedTarget: human TPH1 (Homo sapiens (Human), UniProt P17752)
# measurementProtocol: Biochemical in vitro assay using fluorescence readout (TPH1 inhibition)
# studyConditions: human TPH1, fluorescence readout
Exercise: state measured pIC50 for each of the compounds provided.
Answer as the number alone; pIC50 is minus log10 of concentration in mol/L.

Asked: Would you kindly share the measured pIC50 for CNC(=O)c1cc(F)c(C2c3c(nc4sc(C)nn34)CCN2C(=O)COc2ccc(C(N)=O)nc2Cl)s1 (stereo not shown) ?
Given back: 8.10

Asked: Fill in the blank: the reported pIC50 of CCOC(=O)c1csc(C2c3c(nc4sc(C)nn34)CCN2C(=O)COc2ccc(C(F)(F)F)nc2Cl)n1 (stereo not shown) is ____.
Given back: 6.30

Asked: What value of pIC50 has been recorded for this entry: Cc1nn2c3c(nc2s1)CCN(C(=O)COc1ccc(C(=O)NC2CC2)nc1Cl)C3c1ccc(OC(F)(F)F)cc1F (stereo not shown)
Given back: 7.55

Asked: Value lookup for pIC50; key = O=C(COc1ccc(CN2CCOCC2)cc1Cl)N1CCc2nc3sccn3c2C1c1cnn(-c2ccccc2)c1 (stereo not shown)
Given back: 8.15

Asked: Name the reported pIC50 value associated with the compound CCc1nc(C)ccc1OCC(=O)N1CCc2nc3sc(C)nn3c2C1c1ccc(C2CC2)cc1F (stereo not shown)
Given back: 7.64

Asked: Quick one: pIC50 of Cc1nn2c3c(nc2s1)CCN(C(=O)COc1ccc(C#N)nc1Cl)C3c1sc(C(=O)N(C)C)cc1F (stereo not shown) ?
Given back: 7.34

Asked: Using the record for Cc1nn2c3c(nc2s1)CCN(C(=O)COc1ccc(S(N)(=O)=O)cc1C)C3c1ccc(C2CC2)cc1F (stereo not shown) , report its pIC50.
Given back: 7.35

====

# testedTarget: human TPH1 (Homo sapiens (Human))
# measurementProtocol: Biochemical in vitro assay using fluorescence readout (TPH1 inhibition)
# studyConditions: human TPH1, fluorescence readout
propertyMeasured: pIC50
Give only the number. pIC50 is defined as minus log10 of concentration in molar units.

Asked: Report pIC50 for CCc1nc(NS(C)(=O)=O)ccc1OCC(=O)N1CCc2nc3sc(CF)nn3c2C1c1ccc(C)cc1F (stereo not shown) tested on human TPH1 (Homo sapiens (Human)).
Given back: 7.92

Asked: Param readout = pIC50; param system = human TPH1 (Homo sapiens (Human)); param query = Cc1nn2c3c(nc2s1)CCN(C(=O)COc1ccc(N2CCOCC2)nc1Cl)C3c1nc(C(=O)N(C)C)cs1 (stereo not shown) ; response: value
Given back: 7.85

Asked: Please provide the recorded pIC50 for Cc1nn2c3c(nc2s1)CCN(C(=O)COc1ccc(C#N)nc1Cl)C3c1ncc(C2CC2)cc1F (stereo not shown) , tested on human TPH1 (Homo sapiens (Human)).
Given back: 7.77

Asked: Give the reported pIC50 for Cc1nn2c3c(nc2s1)CCN(C(=O)COc1ccc(-c2ncco2)nc1Cl)C3c1ccc(Cl)cc1F (stereo not shown) (system: human TPH1 (Homo sapiens (Human))).
Given back: 8.00
